Data credit: patent US10875874B2

system: spontaneously hypertensive rats (SHR); test: Caudal artery systolic pressure of spontaneously hypertensive rats, 8 weeks of continuous medication; type: in vivo, rat; conditions: 120 mg/kg/d intragastric continuous, 56 d, 30 min after administration, x ± s, n = 8
The entries below come with measured Systolic pressure values attached.
Please respond with the number in mmHg and leave the unit unwritten.

Some solved cases for reference:
CC(=O)Oc1ccccc1C(=O)O[C@H]1C(=O)O[C@H]2O[C@]34C(=O)OC5C[C@@H](C(C)(C)C)C21[C@@]53[C@@H](O)[C@@H]1OC(=O)[C@@H](C)[C@@]14O (stereo partly drawn) [BA] | 139.88
CC1C(=O)OC2C(O)C34C5CC(C(C)(C)C)C36C(OC(=O)C6O)OC4(C(=O)O5)C12O (stereo not drawn) [GB, ginkgolide B] | 135.28
C[C@@H]1C(=O)O[C@H]2[C@H](O)[C@@]34C5C[C@@H](C(C)(C)C)C36[C@@H](OC(=O)[C@@H]6OC(=O)[C@H](c3ccccc3Cl)N3CCc6sccc6C3)O[C@@]4(C(=O)O5)[C@@]12O (stereo partly drawn) [BL] | 149.76
Cc1nc(C)c(CO[C@H]2C(=O)O[C@H]3O[C@]45C(=O)OC6C[C@@H](C(C)(C)C)C32[C@@]64[C@@H](O)[C@@H]2OC(=O)[C@@H](C)[C@@]25O)nc1C (stereo partly drawn) [BM] | 149.78

## Input For spontaneously hypertensive rats (SHR), provide Systolic pressure of CCCCC(OC(C)=O)c1ccccc1C(=O)O[C@H]1C(=O)O[C@H]2O[C@]34C(=O)OC5C[C@@H](C(C)(C)C)C21[C@@]53[C@@H](O)[C@@H]1OC(=O)[C@@H](C)[C@@]14O (stereo partly drawn) [BD] please.
## Output 142.15

## Input What about Cc1nc(C)c(C(=O)O[C@H]2C(=O)O[C@H]3O[C@]45C(=O)OC6C[C@@H](C(C)(C)C)C32[C@@]64[C@@H](O)[C@@H]2OC(=O)[C@@H](C)[C@@]25O)nc1C (stereo partly drawn) [BZ] ?
## Output 148.62
